- testTarget: Bruton's Tyrosine Kinase (inactivated state) (Homo sapiens (Human), UniProt Q06187)
- Sequence (Q06187 whole entry): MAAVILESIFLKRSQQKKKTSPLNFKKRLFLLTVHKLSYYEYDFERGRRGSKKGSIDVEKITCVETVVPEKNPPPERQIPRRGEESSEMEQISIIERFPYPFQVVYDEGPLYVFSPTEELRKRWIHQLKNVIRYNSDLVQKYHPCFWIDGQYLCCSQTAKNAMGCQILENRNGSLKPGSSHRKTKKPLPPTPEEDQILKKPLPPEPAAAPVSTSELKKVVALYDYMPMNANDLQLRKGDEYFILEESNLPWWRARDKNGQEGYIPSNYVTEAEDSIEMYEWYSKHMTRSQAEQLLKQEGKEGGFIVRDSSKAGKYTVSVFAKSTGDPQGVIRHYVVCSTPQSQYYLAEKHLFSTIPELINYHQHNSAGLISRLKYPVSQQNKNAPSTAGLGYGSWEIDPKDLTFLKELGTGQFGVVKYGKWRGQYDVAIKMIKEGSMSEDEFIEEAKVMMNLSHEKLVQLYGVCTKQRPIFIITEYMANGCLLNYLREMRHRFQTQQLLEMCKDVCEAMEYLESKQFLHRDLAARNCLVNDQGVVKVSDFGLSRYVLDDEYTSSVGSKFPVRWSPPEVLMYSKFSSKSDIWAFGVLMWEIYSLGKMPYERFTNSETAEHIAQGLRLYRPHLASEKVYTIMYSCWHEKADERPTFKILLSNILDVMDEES
- experimentNotes: Bruton's Tyrosine Kinase (BTK) Inhibition TR-FRET (Time Resolved FRET) competition assay
- Type: binding
- conditionNotes: inactivated state of BTK; Kinase Tracer 178; incubated 18-24 h at 14° C.
Checkbox rule: IC50 lower than 20 nM = 1.0; IC50 not lower than 20 nM = 0.0.

Prompt: Regarding Cc1cc(Oc2cccc(C#N)c2)ccc1-n1ncc(C(=O)c2cc3c(-c4cn[nH]c4)cccc3[nH]2)c1N , kindly confirm whether its IC50 is beneath 20 nM.
Completion: 1.0

Prompt: Regarding Cc1cc(Oc2cccc(F)c2F)ccc1-n1ncc(C(=O)c2cc3c(Br)cccc3[nH]2)c1N , kindly confirm whether its IC50 is beneath 20 nM.
Completion: 0.0

Prompt: Regarding Cc1cc(Oc2cccc(C#N)c2)ccc1-n1ncc(C(=O)c2cc3c(CC#N)cccc3[nH]2)c1N , kindly confirm whether its IC50 is beneath 20 nM.
Completion: 1.0

Prompt: Regarding Cc1cc(Oc2cccc(F)c2F)ccc1-n1ncc(C(=O)c2cc3c(-c4ccccc4)cccc3[nH]2)c1N , kindly confirm whether its IC50 is beneath 20 nM.
Completion: 0.0

Prompt: Regarding Cc1cc(Oc2cccc(F)c2F)ccc1-n1ncc(C(=O)c2cc3c(Cc4ccccc4)cccc3[nH]2)c1N , kindly confirm whether its IC50 is beneath 20 nM.
Completion: 0.0

Prompt: Regarding COc1cccc(Cc2cccc3[nH]c(C(=O)c4cnn(-c5ccc(Oc6cccc(C#N)c6)cc5C)c4N)cc23)c1 , kindly confirm whether its IC50 is beneath 20 nM.
Completion: 0.0

Prompt: Regarding Cc1cc(Oc2cccc(F)c2F)ccc1-n1ncc(C(=O)c2cc3c(-c4cn[nH]c4)cccc3[nH]2)c1N , kindly confirm whether its IC50 is beneath 20 nM.
Completion: 1.0

Prompt: Regarding Cc1cc(Oc2cccc(F)c2F)ccc1-n1ncc(C(=O)c2cc3c(-n4cccn4)cccc3[nH]2)c1N , kindly confirm whether its IC50 is beneath 20 nM.
Completion: 0.0

Prompt: Regarding Cc1cc(Oc2cccc(F)c2F)ccc1-n1ncc(C(=O)c2cc3c(Cc4cccc(C#N)c4)cccc3[nH]2)c1N , kindly confirm whether its IC50 is beneath 20 nM.
Completion: 0.0

Prompt: Regarding Cc1cc(Oc2cccc(C#N)c2)ccc1-n1ncc(C(=O)c2cc3c(C(=O)N4CCN(C)CC4)cccc3[nH]2)c1N , kindly confirm whether its IC50 is beneath 20 nM.
Completion: 0.0

Prompt: Regarding Cc1cc(Oc2cccc(F)c2F)ccc1-n1ncc(C(=O)c2cc3c(-c4ccsc4)cccc3[nH]2)c1N , kindly confirm whether its IC50 is beneath 20 nM.
Completion: 0.0

Prompt: Regarding Cc1cc(Oc2cccc(F)c2F)ccc1-n1ncc(C(=O)c2cc3c(-c4cccc(C#N)c4)cccc3[nH]2)c1N , kindly confirm whether its IC50 is beneath 20 nM.
Completion: 0.0

Prompt: Regarding Cc1cc(Oc2cccc(F)c2F)ccc1-n1ncc(C(=O)c2cc3c(-c4cccs4)cccc3[nH]2)c1N , kindly confirm whether its IC50 is beneath 20 nM.
Completion: 0.0

Prompt: Regarding Cc1cc(Oc2cccc(F)c2F)ccc1-n1ncc(C(=O)c2cc3c(-c4cccc(Cl)c4)cccc3[nH]2)c1N , kindly confirm whether its IC50 is beneath 20 nM.
Completion: 0.0

Prompt: Regarding Cc1cc(Oc2cccc(F)c2F)ccc1-n1ncc(C(=O)c2cc3c(-c4ccccn4)cccc3[nH]2)c1N , kindly confirm whether its IC50 is beneath 20 nM.
Completion: 1.0

Prompt: Regarding Cc1cc(Oc2cccc(C#N)c2)ccc1-n1ncc(C(=O)c2cc3c(C(=O)N4CCOCC4)cccc3[nH]2)c1N , kindly confirm whether its IC50 is beneath 20 nM.
Completion: 0.0

Prompt: Regarding Cc1cc(Oc2cccc(F)c2F)ccc1-n1ncc(C(=O)c2cc3c(C(=O)N4CCOCC4)cccc3[nH]2)c1N , kindly confirm whether its IC50 is beneath 20 nM.
Completion: 1.0

Prompt: Regarding CNC(=O)c1cccc2[nH]c(C(=O)c3cnn(-c4ccc(Oc5cccc(C#N)c5)cc4C)c3N)cc12 , kindly confirm whether its IC50 is beneath 20 nM.
Completion: 1.0
